# ASSAY TEXT: Bioavailability in Staphylococcus aureus-infected mouse localized thigh infection model at 25 mg/kg
# Assay type: ADME, organism-based
# STATED CONDITIONS: in vivo

SMILES REPR | bioavailability, %
N#C[C@]1(c2ccc(-c3ccc(N4C[C@H](Cn5ccnn5)OC4=O)cc3F)cn2)[C@@H]2CNC[C@@H]21 | 30
